These entries and their values trace back to PubChem BioAssay (NCI).

Entries and their measured growth follow.
- Test system: UACC-257 melanoma
- Experimental protocol: NCI-60 one-dose screen, 48 h (100 = growth as untreated, 0 = no growth, -100 = all killed)
- Stated conditions: 10 µM unless noted
- Description: Cells are grown in 96 well plates and exposed to the test compound for 48 hours. Compounds are tested at a single concentration, which is 10^-5 M for most compounds. The reported endpoint is percent growth (GI% or GIPRCNT), where numbers from 0 - 100% represent growth inhibition, and numbers from -100% - 0 represent cell death. For example, a value of 40 represents 60% growth inhibition. A value of 0 means no net growth occurred over the course of the experiment. […]
About 83,000 compounds went through this panel and 20% of them were active in at least one assay; those are over-represented in the sample as a whole. The source made the active and inactive calls. How the source made its calls: active means growth percent below 10; inactive means the rest.

In [3]: df
Out[3]:
                               input_smiles  recorded_measurement
0      Cc1sc2nc(NCc3ccccc3Cl)[nH]c(=O)c2c1C       106% (inactive)
1            O=C(CN1CCOCC1)NNc1ncnc2ccccc12      86.3% (inactive)
2  CC(C)NC(=O)c1cc(-c2ccc(NC(=O)Nc3ccc(N4CCOCC4)c(C(F)(F)F)c3)cc2)nc2cccnc12      94.4% (inactive)
3             O=[N+]([O-])c1ccc(O)c2ncccc12      16.5% (inactive)
4    c1ccc2c(NCCCn3ccnc3)c3oc4ccccc4c3nc2c1      16.4% (inactive)

Requested read-out growth, target or system UACC-257 melanoma, entry "N#Cc1c(-c2ccc(Cl)cc2)nc(SCc2ccccc2)nc1N1CCNCC1"
97.3% (inactive)

Any idea what growth came out for "CC(C)Sc1nc(Nc2ccc(S(N)(=O)=O)cc2)c(C#N)c(-c2ccc(F)cc2)n1" on UACC-257 melanoma?
93.3% (inactive)

Form field: growth recorded for "COc1ccc(/C=C2\SC(=Nc3cc(C)[nH]n3)NC2=O)cc1" with UACC-257 melanoma (enter value)
98.7% (inactive)

Recall the recorded growth for "NS(=O)(=O)c1cccc(Nc2nc(SCC(=O)c3ccc(Br)cc3)nc3ccccc23)c1" with UACC-257 melanoma and state it.
96.1% (inactive)

Hi! What's the reported growth for "Nc1c(C(=O)Nc2ccc(C(F)(F)F)cc2)sc2nc(-c3cnccn3)cc(-c3cccs3)c12" on UACC-257 melanoma?
95.8% (inactive)
